target-or-system: UniProtKB P00797
Sequence (P00797 whole entry): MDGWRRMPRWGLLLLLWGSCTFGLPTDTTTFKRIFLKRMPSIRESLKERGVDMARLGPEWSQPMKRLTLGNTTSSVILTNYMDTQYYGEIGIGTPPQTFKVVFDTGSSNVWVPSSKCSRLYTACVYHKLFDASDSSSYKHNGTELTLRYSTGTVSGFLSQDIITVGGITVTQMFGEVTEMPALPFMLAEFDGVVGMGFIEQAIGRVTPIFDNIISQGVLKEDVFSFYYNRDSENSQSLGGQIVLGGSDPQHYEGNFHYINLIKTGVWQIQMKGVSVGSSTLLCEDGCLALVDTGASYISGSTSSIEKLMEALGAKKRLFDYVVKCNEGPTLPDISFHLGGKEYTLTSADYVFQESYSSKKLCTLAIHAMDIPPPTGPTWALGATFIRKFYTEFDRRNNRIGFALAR
assay-protocol: In vitro inhibitory activity against renin at 10e-8(M)
Where a SMILES comes first, the peptide text is derived from it. [ ]: non-standard residue; d: D form. The star is where a group is joined. 1Nal = N[C@@H](Cc1cccc2ccccc12)C(=O)O; Cbz = O=C(OCc1ccccc1)*
experimental-readout: pIC50
Remember, pIC50 is on a log scale: it is -log10 of the molar concentration.

// recorded pIC50 for CC(C)C[C@@H](C=O)NC(=O)[C@H](Cc1c[nH]cn1)NC(=O)[C@H](Cc1cccc2ccccc12)NC(=O)OCc1ccccc1 (Cbz-[1Nal]-His-Leu-aldehyde) : 7.10
